- Assayed system: HpPutP (Helicobacter pylori)
- Construct: full-length, C-terminal 6His tag (FLAG-6His for Western blots), expressed in E. coli WG170 (PutP-A-), intact cells
- Sequence (B6JPE8 1-496): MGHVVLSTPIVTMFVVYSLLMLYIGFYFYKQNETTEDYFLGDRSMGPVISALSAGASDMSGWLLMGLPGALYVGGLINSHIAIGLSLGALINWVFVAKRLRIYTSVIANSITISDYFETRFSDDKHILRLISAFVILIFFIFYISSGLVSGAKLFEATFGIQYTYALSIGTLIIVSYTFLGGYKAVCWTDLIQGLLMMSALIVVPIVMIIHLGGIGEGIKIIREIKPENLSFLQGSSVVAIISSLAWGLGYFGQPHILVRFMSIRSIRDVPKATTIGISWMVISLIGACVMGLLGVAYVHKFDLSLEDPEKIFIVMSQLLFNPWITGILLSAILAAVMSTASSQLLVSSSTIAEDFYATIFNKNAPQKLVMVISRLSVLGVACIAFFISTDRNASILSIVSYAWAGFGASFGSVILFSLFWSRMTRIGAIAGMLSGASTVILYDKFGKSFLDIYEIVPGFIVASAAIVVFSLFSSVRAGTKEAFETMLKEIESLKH
- Test name: inhibition of […]-L-proline uptake into E. coli WG170 expressing HpPutP, Dixon plot
Property: Ki (µM)
Numbers only, in µM.

{"Compound": "O=C(O)[C@@H]1CCN1", "Ki (µM)": 44.2}

Attention now turns to another entry.
In: Hello, I am looking for reported Ki with HpPutP (Helicobacter pylori) for O=C(O)C1C=CCN1 (racemic) [DHP, 3,4-dehydro-D,L-proline] . Could you help?
Out: 5.7
